Origin of values: ChEMBL document CHEMBL1134179

Attribute: pKa
- protocol notes: pKa value was determined
- Assay type: physicochemical

- molecule: "CC(C)(S)[C@@H](N)C(=O)O [PENICILLAMINE]"
  pKa: 8.53
- molecule: "CCOC(=O)[C@@H](N)CS"
  pKa: 6.5
- molecule: "CC(=O)N[C@@H](CS)C(=O)O [ACETYLCYSTEINE]"
  pKa: 9.52
- molecule: "CC(=O)NC(C(=O)O)C(C)(C)S (stereo not given) [N-ACETYL PENICILLAMINE]"
  pKa: 9.9
- molecule: "N[C@@H](CCC(=O)N[C@@H](CS)C(=O)NCC(=O)O)C(=O)O [GLUTATHIONE]"
  pKa: 8.75
